Protocol Summary: AUC (0 to infinity) in Swiss-Webster mouse
Type: ADME, organism-based
Design: time infinity
Recorded Conditions: plasma
Property Measured: AUC(0-inf) (µM·h)
Express your answer in µM·h, writing the number without its unit.

Query: Which value of AUC(0-inf) has been reported for `CCOP(=O)(Cc1ccc(C(=O)Nc2cc(-c3cccs3)ccc2N)cc1)OCC` in the records?
Reply: 0.17

====

Measured Target: Histone deacetylase 2 (Homo sapiens)
Sequence (Q92769 whole entry): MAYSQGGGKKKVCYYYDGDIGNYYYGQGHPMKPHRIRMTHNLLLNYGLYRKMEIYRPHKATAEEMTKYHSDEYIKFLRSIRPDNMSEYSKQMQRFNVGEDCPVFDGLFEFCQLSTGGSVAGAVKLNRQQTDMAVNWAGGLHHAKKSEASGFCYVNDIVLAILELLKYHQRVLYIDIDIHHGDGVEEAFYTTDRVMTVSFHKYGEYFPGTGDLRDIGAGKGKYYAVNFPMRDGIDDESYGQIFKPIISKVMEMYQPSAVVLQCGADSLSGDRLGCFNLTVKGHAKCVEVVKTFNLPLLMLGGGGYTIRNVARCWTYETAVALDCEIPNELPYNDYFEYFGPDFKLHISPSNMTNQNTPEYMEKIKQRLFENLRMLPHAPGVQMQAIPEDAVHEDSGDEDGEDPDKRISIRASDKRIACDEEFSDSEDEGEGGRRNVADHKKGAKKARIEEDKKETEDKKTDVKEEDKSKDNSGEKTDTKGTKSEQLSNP
Property Measured: IC50

Query: Field request: IC50 | item: `CCOP(=O)(CNCc1ccc(C(=O)Nc2cc(-c3cccs3)ccc2N)cc1)OCC`
Reply: 14 nM

====

Protocol Summary: AUC in mouse at 150 mg/kg, po
Type: ADME, organism-based, Plasma
Design: dose 150 mg/kg, route oral
Recorded Conditions: whole blood
Recorded AUC for the following molecules
Answer with a number only, understood to be in µM·h.

[[record]]
molecule = "COP(C)(=O)Cc1ccc(C(=O)Nc2cc(-c3cccs3)ccc2N)cc1 (stereo not given)"
unit_spec = "µM·h"
numeric_result = 115


Query: Look up AUC: CCOP(C)(=O)Cc1ccc(C(=O)Nc2cc(-c3cccs3)ccc2N)cc1 (stereo not given)
Reply: 50

Query: AUC for CCOP(=O)(c1ccccc1)c1ccc(C(=O)Nc2cc(-c3cccs3)ccc2N)cc1 (stereo not given) ?
Reply: 0.91

Query: Dear colleague, I am looking for the recorded AUC of the following molecule: `CCP(=O)(CC)Cc1ccc(C(=O)Nc2cc(-c3cccs3)ccc2N)cc1`
Reply: 17

Query: So what does the record say about AUC for CCOP(=O)(CC)Cc1ccc(C(=O)Nc2cc(-c3cccs3)ccc2N)cc1 (stereo not given) ?
Reply: 17
